Biological target: T1, recombinant hIL-6R protein, monomeric form (human, UniProt P08887 20-358)
T1 construct: also called monomeric hIL-6R; Human IL6R
T1 sequence: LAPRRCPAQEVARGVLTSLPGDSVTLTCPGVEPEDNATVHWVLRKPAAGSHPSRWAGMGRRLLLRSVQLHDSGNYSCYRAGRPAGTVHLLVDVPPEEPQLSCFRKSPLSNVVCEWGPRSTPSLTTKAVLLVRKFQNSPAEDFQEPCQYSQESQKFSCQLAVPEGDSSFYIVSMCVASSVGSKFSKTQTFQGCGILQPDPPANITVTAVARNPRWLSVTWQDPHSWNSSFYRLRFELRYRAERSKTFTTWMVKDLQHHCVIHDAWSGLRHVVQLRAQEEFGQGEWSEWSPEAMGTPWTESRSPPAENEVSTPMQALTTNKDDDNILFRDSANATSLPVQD
Assay: SPR (BIAcore), captured mouse-IgG antibody, monomeric hIL-6R 1.56-12.5 nM
Parameter measured: kon (M⁻¹ s⁻¹)
Express the result in M⁻¹ s⁻¹ but write the number alone.

Binder	U	kon
VQ8A9-6 (antibody, V domains shown, Human variable regions with mouse constant region (hybridoma-derived chimeric antibody); also called VQ8A9-6 mIgG1) VH: EVQLVESGGNLVQPGRSLRLSCAASGFIFDDYAMHWVRQAPGKGLEWVSGISWNSGSIGYADSVKGRFTISRDNAKNSLYLQMNSLRAEDTALYYCAKDGGSSWLPFVYYYGMDVWGQGTTVTVSS VL: EIVMTQSPATLSVSPGERATLSCRASQSISSNFAWYQQKPGQAPRLLIYGASTRATGIPARFSGSGSGTDFTLTISSLQSEDFAVYYCQQYSSWPPYTFGQGTKLEIK	M⁻¹ s⁻¹	995000
VQ8F11-21 (antibody, V domains shown, Human variable regions with mouse constant region; also called VQ8F11-21 mIgG2a) VH: EVQLVESGGGLVQPGRSLRLSCAASRFTFDDYAMHWVRQAPGKGLEWVSGISWNSGRIGYADSVKGRFTISRDNAENSLFLQMNGLRAEDTALYYCAKGRDSFDIWGQGTMVTVSS VL: DIQMTQSPSSVSASVGDRVTITCRASQGISSWLAWYQQKPGKAPKLLIYGASSLESGVPSRFSGSGSGTDFTLTISSLQPEDFASYYCQQANSFPYTFGQGTKLEIK	M⁻¹ s⁻¹	786000

From here, focus on the item given below.
INPUT: I'd like to know its kon. The binder in question is VV1G4-7 (antibody, IgG2a, V domains shown, Human variable regions with mouse constant region) VH: QVQLVQSGAEVKEPGASVKVSCKASGYTFTSYDIIWVRQATGQGLEWMGWMNPNSGNTGYTQNLQGRVTLTRNTSITTVYMELSSLSSEDTAVYYCARDYSSHYYGLDVWGQGTTVTVSS VL: DIQLTQSPSFLSTSIGDRVTITCWASQDISNYLAWYQQKPGKAPKLLIFVASTLQSGVPSRFSGSGSGTEFTLTISSLQPEDFATYYCQQFNSYPLTFGGGTKVEIK
OUTPUT: 341000
